Target: CDK19_CycC (Homo sapiens)
Construct: purchased Reaction Biology
Assay: Radiometric protein kinase assay (33PanQinase), CDK19_CycC
Assay type: biochemical
pIC50: −log10 of the molar value.
Readings of pIC50 for the listed compounds
measured.attribute: pIC50

| structure.smiles | reported.result |
| --- | --- |
| Cn1cc(-c2ccc(-c3cncc(Cl)c3N3CCC4(CCNC4=O)CC3)cc2)cn1 | 6.56 |
| Cn1ncc2cc(-c3cnc(N)c(Cl)c3N3CCC4(CCNC4=O)CC3)ccc21 | 6.39 |
| Cc1n[nH]c2ncc(C(=O)N3CCC[C@H]3c3ccc(Cl)cc3)cc12 | 6.45 |

---

Molecular target: CDK6_CycD1 (Homo sapiens)
Construct: purchased Reaction Biology
Sequence (Q00534 whole entry): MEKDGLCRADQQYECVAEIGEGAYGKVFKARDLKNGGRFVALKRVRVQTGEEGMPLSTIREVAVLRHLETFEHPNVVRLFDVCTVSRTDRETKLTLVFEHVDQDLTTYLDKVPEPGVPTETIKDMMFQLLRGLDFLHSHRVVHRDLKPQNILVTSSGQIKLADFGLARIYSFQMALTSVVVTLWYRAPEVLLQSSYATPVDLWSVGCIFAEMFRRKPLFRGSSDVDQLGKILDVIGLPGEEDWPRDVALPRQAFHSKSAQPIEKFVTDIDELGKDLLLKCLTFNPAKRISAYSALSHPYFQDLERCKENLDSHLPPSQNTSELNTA
Sequence (P24385 whole entry partner): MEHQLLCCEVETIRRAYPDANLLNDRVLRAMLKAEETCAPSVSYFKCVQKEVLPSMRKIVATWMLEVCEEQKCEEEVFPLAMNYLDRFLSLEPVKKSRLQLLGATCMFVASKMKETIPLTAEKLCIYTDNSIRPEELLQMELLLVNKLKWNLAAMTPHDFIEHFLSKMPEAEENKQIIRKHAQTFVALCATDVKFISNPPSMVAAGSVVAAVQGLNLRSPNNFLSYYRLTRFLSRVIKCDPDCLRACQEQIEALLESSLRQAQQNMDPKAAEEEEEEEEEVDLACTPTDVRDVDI
Test: Radiometric protein kinase assay (33PanQinase), CDK6_CycD1
Type: biochemical
Conditions: highest assay concentration 1.00E-05 M
measured.attribute: IC50

| molecule | measured.attribute | reported.result |
| --- | --- | --- |
| Cc1n[nH]c2ncc(C(=O)N3CCC[C@H]3c3ccc(Cl)cc3)cc12 | IC50 | > 10 µM |
| CN1CCN(C(=O)c2ccc3cc(CCNc4ncnc5ccc(C#N)cc45)ccc3c2)CC1 [Senexin B, reference compound] | IC50 | > 10 µM |
| Cn1cc(-c2ccc(-c3cncc(Cl)c3N3CCC4(CCNC4=O)CC3)cc2)cn1 | IC50 | > 10 µM |

---

Target: CDK19_CycC (Homo sapiens, UniProt Q9BWU1)
Construct: purchased Reaction Biology
Sequence (Q9BWU1 whole entry): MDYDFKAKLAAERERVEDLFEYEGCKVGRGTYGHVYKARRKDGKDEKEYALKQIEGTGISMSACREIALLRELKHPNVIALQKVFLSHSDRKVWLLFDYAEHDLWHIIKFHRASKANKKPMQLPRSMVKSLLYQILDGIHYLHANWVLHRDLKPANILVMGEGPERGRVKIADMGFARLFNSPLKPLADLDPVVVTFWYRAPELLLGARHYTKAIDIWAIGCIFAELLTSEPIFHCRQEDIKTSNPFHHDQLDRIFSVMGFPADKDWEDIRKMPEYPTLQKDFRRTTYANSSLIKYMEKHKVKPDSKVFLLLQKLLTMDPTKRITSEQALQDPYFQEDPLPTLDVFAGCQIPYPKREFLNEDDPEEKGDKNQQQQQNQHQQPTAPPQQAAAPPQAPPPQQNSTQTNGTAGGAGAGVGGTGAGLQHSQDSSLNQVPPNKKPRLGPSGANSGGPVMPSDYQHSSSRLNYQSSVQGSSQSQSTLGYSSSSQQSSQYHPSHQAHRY
Sequence (P24863 whole entry partner): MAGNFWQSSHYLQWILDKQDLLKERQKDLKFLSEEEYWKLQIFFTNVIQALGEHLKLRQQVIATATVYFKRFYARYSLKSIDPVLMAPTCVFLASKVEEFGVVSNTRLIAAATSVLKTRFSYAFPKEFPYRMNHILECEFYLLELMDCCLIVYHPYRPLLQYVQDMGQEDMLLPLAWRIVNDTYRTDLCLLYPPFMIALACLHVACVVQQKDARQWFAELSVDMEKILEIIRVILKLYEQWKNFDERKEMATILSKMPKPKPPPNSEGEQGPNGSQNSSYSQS
Assay: Radiometric protein kinase assay (33PanQinase), CDK19_CycC
Type: biochemical
Conditions: highest assay concentration 1.00E-05 M; read-out: IC50
pIC50: −log10 of the molar value.
measured.attribute: pIC50

| compound | measured.attribute | reported.result |
| --- | --- | --- |
| Cc1c(Br)c(Br)c2c3c1nc(N1CCNCC1)n3CCC2.Cl [SEL120-34A, reference compound] | pIC50 | 6.36 |

---

Biological target: CDK1_CycA2 (Homo sapiens)
Construct: purchased Reaction Biology
Sequence (P06493 whole entry): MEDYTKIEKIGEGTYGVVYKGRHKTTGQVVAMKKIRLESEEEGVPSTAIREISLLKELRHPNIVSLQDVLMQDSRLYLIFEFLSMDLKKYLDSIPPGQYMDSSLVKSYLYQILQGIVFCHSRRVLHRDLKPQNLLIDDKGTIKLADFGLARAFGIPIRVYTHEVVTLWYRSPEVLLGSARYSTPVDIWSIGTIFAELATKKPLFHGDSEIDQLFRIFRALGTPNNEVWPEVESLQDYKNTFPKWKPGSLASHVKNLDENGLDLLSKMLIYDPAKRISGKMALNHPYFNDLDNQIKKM
Sequence (P20248 whole entry partner): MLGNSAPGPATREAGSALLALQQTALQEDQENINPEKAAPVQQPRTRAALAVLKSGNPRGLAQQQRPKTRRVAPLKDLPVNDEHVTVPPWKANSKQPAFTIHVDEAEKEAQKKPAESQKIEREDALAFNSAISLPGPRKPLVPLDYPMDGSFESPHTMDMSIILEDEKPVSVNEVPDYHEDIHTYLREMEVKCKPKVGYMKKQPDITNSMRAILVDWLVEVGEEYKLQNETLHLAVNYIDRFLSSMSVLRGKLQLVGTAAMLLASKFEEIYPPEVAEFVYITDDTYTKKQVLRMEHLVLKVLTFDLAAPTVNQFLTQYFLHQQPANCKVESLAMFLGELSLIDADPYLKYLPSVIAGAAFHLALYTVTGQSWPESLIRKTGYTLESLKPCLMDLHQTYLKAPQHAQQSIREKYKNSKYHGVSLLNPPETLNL
Assay: Radiometric protein kinase assay (33PanQinase), CDK1_CycA2
Type: biochemical

| molecule | test.system | measure.unit | IC50 |
| --- | --- | --- | --- |
| Cc1n[nH]c2ncc(C(=O)N3CCC[C@H]3c3ccc(Cl)cc3)cc12 [MSC2530818] | CDK1_CycA2 (Homo sapiens) | µM | 6.46 |

---

Biological target: UniProtKB Q00537
Sequence (Q00537 whole entry): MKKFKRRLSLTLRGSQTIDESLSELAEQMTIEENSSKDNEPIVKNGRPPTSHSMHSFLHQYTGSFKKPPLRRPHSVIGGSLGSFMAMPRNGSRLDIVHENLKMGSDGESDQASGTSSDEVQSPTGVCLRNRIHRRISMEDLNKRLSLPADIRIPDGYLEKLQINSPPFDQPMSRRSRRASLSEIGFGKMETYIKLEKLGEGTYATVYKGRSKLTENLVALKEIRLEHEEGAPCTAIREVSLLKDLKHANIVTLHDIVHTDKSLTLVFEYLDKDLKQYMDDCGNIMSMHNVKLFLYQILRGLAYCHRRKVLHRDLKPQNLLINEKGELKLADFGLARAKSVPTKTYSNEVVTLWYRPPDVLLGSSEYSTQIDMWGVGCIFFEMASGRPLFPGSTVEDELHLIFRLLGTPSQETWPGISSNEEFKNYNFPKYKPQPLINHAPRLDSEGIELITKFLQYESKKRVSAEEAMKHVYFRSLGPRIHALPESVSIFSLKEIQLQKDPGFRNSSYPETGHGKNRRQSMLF
Assay: Radiometric protein kinase assay (33PanQinase), CDK17_p35NCK
Format: biochemical
Details: slope of the IC50 fit
measured.attribute: Hill Slope

| compound | measured.attribute | reported.result |
| --- | --- | --- |
| Cc1n[nH]c2ncc(C(=O)N3CCC[C@H]3c3ccc(Cl)cc3)cc12 [MSC2530818] | Hill Slope | -0.57 |
| Cn1cc(-c2ccc(-c3cncc(Cl)c3N3CCC4(CCNC4=O)CC3)cc2)cn1 [CCT251545] | Hill Slope | -0.17 |
| Cc1c(Br)c(Br)c2c3c1nc(N1CCNCC1)n3CCC2.Cl [SEL120-34A, reference compound] | Hill Slope | -0.56 |
| Cn1ncc2cc(-c3cnc(N)c(Cl)c3N3CCC4(CCNC4=O)CC3)ccc21 [CCT251921] | Hill Slope | -0.39 |
| CN1CCN(C(=O)c2ccc3cc(CCNc4ncnc5ccc(C#N)cc45)ccc3c2)CC1 [Senexin B, reference compound] | Hill Slope | -0.16 |
